Tested on: Plasmodium falciparum
Experiment: Confirmatory screen in NF54 nanoGlo assay, in single point, at 2uM, 72h
Type: functional, Erythrocyte
Conditions: timepoint 72 hour
Screen size: about 4,800 compounds; about 420 (8.8%) showed an effect of 50% or more. The entries come from a sample that favours strong results as a whole.
assay_metric: % Inhibition (%)
One number for each entry, in %.

Record excerpt, results attached:
[
  {
    "molecule": "Cc1cc(O)c(Cl)cc1-c1ccc2nccc(N)c2c1",
    "value_units": "%",
    "% Inhibition": 90
  },
  {
    "molecule": "COc1ccc(CNCc2cc3ccccc3[nH]2)cc1CN(C)C",
    "value_units": "%",
    "% Inhibition": 59
  },
  {
    "molecule": "Oc1ccc(OC(F)(F)F)cc1-c1ccc2nccn2n1",
    "value_units": "%",
    "% Inhibition": 83
  }
]

Record % Inhibition for all entries; do not skip any.
1. COc1ccc(-c2cc(C(=O)Nc3ccc(N4CCN5CCCC5C4)cc3)c3c(C)noc3n2)cc1 (centres undefined)
2. c1ccc(CNc2ccc(-c3noc(C45CCCN(CCC4)C5)n3)cn2)cc1
3. O=C(CCc1nnc(-c2ccc(-c3ccccc3)cc2)o1)NC[C@@H]1CCCN2CCCC[C@H]12

OUTPUT:
41
82
56

====

Test system: Plasmodium falciparum
Assay: Confirmatory screen in NF54 nanoGlo assay, in single point, at 2uM, 72h
Assay type: functional, Erythrocyte
Settings: timepoint 72 hour
Hit rate of the full screen: of about 4,800 compounds, about 420 (8.8%) showed an effect of 50% or more. The sample holds strong results, similar compounds and a random draw of the others, so the mix is not that of the screen.
assay_metric: % Inhibition

Below: 3 compounds and their reported % Inhibition.
[
  {
    "compound": "CCNc1nc(C)cc(Nc2ccc(NC(=O)Nc3ccc(F)cc3F)cc2)n1",
    "target_system": "Plasmodium falciparum",
    "% Inhibition": "98%"
  },
  {
    "compound": "Cc1nc(N2CCN(C)CC2)cc(N2CCN(S(=O)(=O)c3ccccc3C(F)(F)F)CC2)n1",
    "target_system": "Plasmodium falciparum",
    "% Inhibition": "67%"
  },
  {
    "compound": "O=C(NCc1cccc(-c2cccnc2)c1)N[C@H]1CCN(C2CCCCC2)C1",
    "target_system": "Plasmodium falciparum",
    "% Inhibition": "48%"
  }
]

Kindly give each listed record's % Inhibition.
1. Clc1cccc(N2CC[C@H](CNC3CCN(Cc4ccco4)CC3)C2)c1
2. Cn1nnc(C(=O)N2CCCCC23CCCCCC3)n1
3. Nc1ccc(-c2cc(OC(F)(F)F)ccc2O)cn1
4. Cc1ccc2[nH]c(-c3cc4n(n3)CCN(c3ccnc(N)n3)C4)nc2c1C
5. COc1cc2nc(NCC3(N4CCN(C)CC4)CCCC3)cc(C)c2cc1OC
6. Nc1ccnc2ccc(-c3ccc(C(=O)NCC4CCOCC4)cc3)cc12

OUTPUT:
1: 66%; 2: 68%; 3: 11%; 4: 89%; 5: 84%; 6: 77%

Count: 4. Required value per item: % Inhibition.
1. CNc1nc(N2CCN(CC(=O)NC3CCCCC3)CC2)nc2ccccc12
2. Clc1ccc2[nH]c3c(c2c1)CCCC3NC1CCN(C2CCOC2)CC1 (stereo not drawn)
3. CC1(N2CCC2)CCC(NC[C@H]2CCN(Cc3ccccc3)C2)CC1 (stereo partly drawn)
4. CNc1nc(C)c(-c2ccnc(Nc3cccc(S(C)(=O)=O)c3)n2)s1

OUTPUT:
1. 23%
2. 81%
3. 66%
4. 58%
